This collection of values is drawn from ChEMBL document CHEMBL3988442.

Readings of Percent Effect for the listed molecules
- Organism: Homo sapiens
- experiment.notes: To identify inhibition of the IFN signalling (Jak-Stat) pathway via expression of an eGFP reporter gene under the control of an IFN-stimulated response element (ISRE) containing MxA promoter.
- Assay type: functional
- Design: scale not given: direction of the effect not stated beside the values
- experimental.conditions: 30 µM
Write the number in % without appending the unit.

## Input // lookup Percent Effect for O=C(CN1CCCC(Cn2cncn2)C1)NCCOc1ccccc1 (stereo unspecified)
## Output 6.94

## Input // lookup Percent Effect for CC(=O)Nc1c(C)cnn1Cc1cc(F)ccc1F
## Output 12.2

Shift focus to the following entry.
## Input // lookup Percent Effect for CC(C)N1CCOCC2(CN(Cc3nccs3)CCO2)C1 (stereo unspecified)
## Output 3.46

----------
- measured.target: Arginase-2, mitochondrial (Homo sapiens)
- Sequence (whole entry): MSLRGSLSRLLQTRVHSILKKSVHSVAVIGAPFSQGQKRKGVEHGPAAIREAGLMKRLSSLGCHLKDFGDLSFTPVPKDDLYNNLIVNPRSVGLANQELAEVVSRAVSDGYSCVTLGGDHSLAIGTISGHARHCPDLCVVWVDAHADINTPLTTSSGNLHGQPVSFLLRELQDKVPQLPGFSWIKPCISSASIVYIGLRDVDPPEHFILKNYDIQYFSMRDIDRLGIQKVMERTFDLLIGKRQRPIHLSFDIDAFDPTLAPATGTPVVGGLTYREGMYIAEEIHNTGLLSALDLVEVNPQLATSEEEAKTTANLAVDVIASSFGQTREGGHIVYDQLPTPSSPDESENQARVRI
- experiment.notes: in vitro enzyme assay to detect the production of urea directly proportional to the activity of Arginase II; further: in the data most compounds retested in dose-response had high values
- Type: functional
- Design: scale not given: direction of the effect not stated beside the values
- experimental.conditions: 33.3 µM
experimental.readout: Percent Effect (%)
Write the number in % without appending the unit.

Below, 5 compounds whose answers are already recorded.
## Input // fetch Arginase-2, mitochondrial (Homo sapiens) Percent Effect for OC(CN1CCN(Cc2ccc(F)cc2)CC1)C1CC1 (configuration not stated)
## Output 1.82

## Input // fetch Arginase-2, mitochondrial (Homo sapiens) Percent Effect for Cc1ccc(C(=O)N2C[C@@H]3OCCN(CCN4CCCC4)[C@@H]3C2)cn1
## Output 2.23

## Input // fetch Arginase-2, mitochondrial (Homo sapiens) Percent Effect for COCCCNC(=O)CN(C)C(=O)c1cc(C)ccc1O
## Output -0.924

## Input // fetch Arginase-2, mitochondrial (Homo sapiens) Percent Effect for N#CCCCS(=O)(=O)N1CCCC1CC(=O)c1cccs1 (configuration not stated)
## Output -3.81

## Input // fetch Arginase-2, mitochondrial (Homo sapiens) Percent Effect for NC(=O)C1CN(C(=O)Nc2ccccc2-c2cccs2)CCO1 (configuration not stated)
## Output -2.4

Next:
## Input // fetch Arginase-2, mitochondrial (Homo sapiens) Percent Effect for Cc1cnn(CC2CCCN2Cc2coc(-c3cccs3)n2)c1 (configuration not stated)
## Output 0.909

## Input // fetch Arginase-2, mitochondrial (Homo sapiens) Percent Effect for Cc1ccc(NC2CCN(C(=O)c3c(C)noc3C)CC2)nn1
## Output -0.766

----------
Readings of Percent Effect for the listed molecules
- measured.target: Sialic acid-binding Ig-like lectin 9 (Homo sapiens) (UniProt Q9Y336)
- Sequence (Q9Y336 whole entry): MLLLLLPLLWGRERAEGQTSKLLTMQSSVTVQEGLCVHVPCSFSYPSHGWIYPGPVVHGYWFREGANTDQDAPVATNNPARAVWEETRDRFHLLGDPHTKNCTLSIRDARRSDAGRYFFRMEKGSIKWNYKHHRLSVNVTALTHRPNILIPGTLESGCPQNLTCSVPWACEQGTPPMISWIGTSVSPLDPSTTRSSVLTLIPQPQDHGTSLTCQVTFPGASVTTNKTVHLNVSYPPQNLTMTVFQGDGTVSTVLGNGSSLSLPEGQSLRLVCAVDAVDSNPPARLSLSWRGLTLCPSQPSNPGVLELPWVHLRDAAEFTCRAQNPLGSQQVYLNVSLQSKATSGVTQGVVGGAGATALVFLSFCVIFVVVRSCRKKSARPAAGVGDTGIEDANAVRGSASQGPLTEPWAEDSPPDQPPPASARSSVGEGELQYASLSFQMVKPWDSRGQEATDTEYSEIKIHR
- experiment.notes: Hs-Siglec9 ALPHAscreen SOP 20170721
- Design: scale not given: direction of the effect not stated beside the values
- experimental.conditions: 10 µM
Write the number in % without appending the unit.

## Input // fetch Sialic acid-binding Ig-like lectin 9 (Homo sapiens) (UniProt Q9Y336) Percent Effect for CCN(C(=O)COC)C(c1cccnc1)c1cc(C)cc(C)c1 (centres undefined)
## Output 27.6

## Input // fetch Sialic acid-binding Ig-like lectin 9 (Homo sapiens) (UniProt Q9Y336) Percent Effect for CN1C(=O)C[C@@H]2[C@@H]1CCN2C(=O)c1ccc[nH]1
## Output 3.04

## Input // fetch Sialic acid-binding Ig-like lectin 9 (Homo sapiens) (UniProt Q9Y336) Percent Effect for Cc1nc(C)n(CC2CCCN(Cc3ccc(C(N)=O)cc3)C2)n1 (centres undefined)
## Output -0.0393

## Input // fetch Sialic acid-binding Ig-like lectin 9 (Homo sapiens) (UniProt Q9Y336) Percent Effect for CCCN(C(=O)COC)c1nc2c(s1)CCc1c-2cnn1C
## Output 21

## Input // fetch Sialic acid-binding Ig-like lectin 9 (Homo sapiens) (UniProt Q9Y336) Percent Effect for O=C(c1cccc(NCCO)c1)N1CCOCC1
## Output 2.34

## Input // fetch Sialic acid-binding Ig-like lectin 9 (Homo sapiens) (UniProt Q9Y336) Percent Effect for Cc1cccc(CNCc2c(C)nn(C)c2N2CCOCC2)n1
## Output 2.65

## Input // fetch Sialic acid-binding Ig-like lectin 9 (Homo sapiens) (UniProt Q9Y336) Percent Effect for CC(C)(C)C(=O)N1CCC(c2nc(O)cc(-c3ccccn3)n2)CC1
## Output -7.12

## Input // fetch Sialic acid-binding Ig-like lectin 9 (Homo sapiens) (UniProt Q9Y336) Percent Effect for CC(C)NC(=O)N1CC[C@@H]2CN(Cc3ccccc3)S(=O)(=O)[C@@H]2CC1
## Output -3.29

## Input // fetch Sialic acid-binding Ig-like lectin 9 (Homo sapiens) (UniProt Q9Y336) Percent Effect for Cc1c(F)cc(C(=O)O)cc1S(=O)(=O)Nc1cccc(C(F)F)c1
## Output 2.65

## Input // fetch Sialic acid-binding Ig-like lectin 9 (Homo sapiens) (UniProt Q9Y336) Percent Effect for O=C1N(Cc2ccc(F)c(F)c2)CCCC12CCN(C1CCSCC1)C2 (centres undefined)
## Output 30.2

Shift focus to the following entry.
## Input // fetch Sialic acid-binding Ig-like lectin 9 (Homo sapiens) (UniProt Q9Y336) Percent Effect for Cc1nc(N2CCN(C)CC2)ncc1C(=O)N1CCC(O)(CO)CC1
## Output 4.12
